Recorded values, source patent US8168651B2.

System: HCT-116 human colorectal carcinoma cells
ASSAY SUMMARY: Cell-proliferation assay using Alamar Blue dye;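 note: cells exposed to compound for about 4 days, then Alamar Blue added and dye fluorescence read after about 4 h, compared with medium-only control wells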
Format: cell-based
CONDITION LABEL: Homo sapiens, HCT-116, read-out: HCT-116 (uM), cell proliferation modulatory activity, HCT-116, second column
VALUE TYPE: IC50

Answered cases to consult:
O=C(O)c1ccc2c(c1)nc(Nc1ccccc1)c1ccsc12 : > 10 µM
CN(C)CCNc1nc2cc(-c3nnn[nH]3)ccc2c2sccc12 : > 10 µM
C#Cc1cccc(Nc2nc3cc(-c4nnn[nH]4)ccc3c3sccc23)c1 : > 10 µM
Brc1cccc(Nc2nc3cc(-c4nnn[nH]4)ccc3c3sccc23)c1 : > 10 µM
O=C(O)c1ccc2c(c1)nc(NCCc1ccccc1)c1ccncc12 [drawing 1511] : > 10 µM
CNc1ncc2c(n1)c(Nc1ccccc1)nc1cc(C(=O)O)ccc12 : 2.99 µM
COc1cc(Nc2nc3cc(-c4nnn[nH]4)ccc3c3sccc23)ccc1F : > 10 µM
Cc1cccc(Nc2nc3cc(C(=O)O)ccc3c3sccc23)c1 : > 10 µM
CCOc1cccc(Nc2nc3cc(C(=O)O)ccc3c3sccc23)c1 : > 10 µM
CNS(=O)(=O)c1cccc(Nc2nc3cc(C(=O)O)ccc3c3sccc23)c1 : > 10 µM

For every listed record, write down its IC50.
1. O=C(O)c1ccc2c(c1)nc(Nc1cc(Cl)ccc1F)c1ccsc12
2. O=C(O)c1ccc2c(c1)nc(Nc1cccc(Cl)c1)c1ncncc12
3. O=C(NCc1cccnc1)c1cccc(Nc2nc3cc(-c4nnn[nH]4)ccc3c3sccc23)c1
4. O=C(O)c1ccc2c(c1)nc(Nc1cc(F)cc(F)c1)c1ncncc12
5. O=C(O)c1ccc2c(c1)nc(Nc1cccc(S(=O)(=O)NC3CC3)c1)c1ccsc12
6. N#Cc1cc(F)cc(Nc2nc3cc(C(=O)O)ccc3c3sccc23)c1
7. O=C(O)c1ccc2c(c1)nc(NCCc1cccc(F)c1)c1ccncc12 [drawing 1560]

["> 10 µM", "7.19 µM", "> 10 µM", "4.05 µM", "> 10 µM", "> 10 µM", "> 10 µM"]

* * *

Record form. Attribute: log10 IC50. Fill in for each entry.
TGT: Flt3 (Homo sapiens (Human), UniProt P36888)
Sequence (P36888 27-993): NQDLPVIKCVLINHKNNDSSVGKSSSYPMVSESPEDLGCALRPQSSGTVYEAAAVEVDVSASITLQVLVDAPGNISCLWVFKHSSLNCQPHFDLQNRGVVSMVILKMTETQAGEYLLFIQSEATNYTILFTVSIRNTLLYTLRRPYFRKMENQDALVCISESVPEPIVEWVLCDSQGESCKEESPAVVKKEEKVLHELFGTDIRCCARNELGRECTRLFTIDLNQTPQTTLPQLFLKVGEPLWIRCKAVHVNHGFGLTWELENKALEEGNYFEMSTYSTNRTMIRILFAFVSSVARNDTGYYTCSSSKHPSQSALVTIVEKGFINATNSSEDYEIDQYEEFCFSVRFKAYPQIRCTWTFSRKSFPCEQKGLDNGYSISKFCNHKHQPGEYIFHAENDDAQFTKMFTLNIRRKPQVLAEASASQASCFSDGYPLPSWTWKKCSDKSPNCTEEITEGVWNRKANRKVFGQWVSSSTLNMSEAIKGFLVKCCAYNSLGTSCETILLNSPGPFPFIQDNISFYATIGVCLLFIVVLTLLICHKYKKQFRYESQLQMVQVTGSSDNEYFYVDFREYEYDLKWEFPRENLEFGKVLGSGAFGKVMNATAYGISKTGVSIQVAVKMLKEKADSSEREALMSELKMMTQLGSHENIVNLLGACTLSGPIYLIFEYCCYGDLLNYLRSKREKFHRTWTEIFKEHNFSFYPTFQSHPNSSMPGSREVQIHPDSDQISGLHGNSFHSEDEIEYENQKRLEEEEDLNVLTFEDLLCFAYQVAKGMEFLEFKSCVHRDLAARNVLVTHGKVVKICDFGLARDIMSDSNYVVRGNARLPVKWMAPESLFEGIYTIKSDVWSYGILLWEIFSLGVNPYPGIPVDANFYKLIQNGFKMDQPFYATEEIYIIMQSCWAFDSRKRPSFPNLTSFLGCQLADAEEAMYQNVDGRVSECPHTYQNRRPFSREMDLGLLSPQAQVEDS
ASSAY SUMMARY: FLT-3 kinase activity in cell free in vitro assay
Assay type: biochemical
CONDITION LABEL: cell-free assay; read-out: FLT-3 (uM) IC50
Form field - Quantity: IC50; Unit: µM; Scale: log10

Worked cases, log10 IC50 given:
Clc1cccc(Nc2nc3ccccc3c3cnccc23)c1 : -0.46
Clc1cccc(Nc2nc3cc(-c4nnco4)ccc3c3cnccc23)c1 : -0.63
NC(=O)c1ccc2c(c1)nc(Nc1cccc(C(F)(F)F)c1)c1ccncc12 : -2.22
O=C(O)c1ccc2c(c1)nc(Nc1ccc(Br)cc1F)c1ccncc12 : -1.06
Clc1cccc(Nc2nc3cc(-c4nnc[nH]4)ccc3c3cnccc23)c1 : -1.05
NC(=O)c1ccc2c(c1)nc(Nc1cc(F)cc(Cl)c1)c1ccncc12 : -1.92
NNC(=O)c1ccc2c(c1)nc(Nc1cccc(Cl)c1)c1ccncc12 : -1.12
NC(=O)c1ccc2c(c1)nc(Nc1ccc(F)c(Cl)c1)c1ccncc12 : -0.78

Field: next compound
Identify the measured log10 IC50 of "O=C(O)c1ccc2c(c1)nc(Nc1cc(F)cc(Cl)c1)c1ccncc12" for Flt3 (Homo sapiens (Human), UniProt P36888).
-1.51

* * *

ASSAY SUMMARY: Pharmacokinetics after IV and PO dose in beagle dogs
Assay type: in vivo
CONDITION LABEL: beagle, plasma; PO 7.50 mg/kg, Dog
VALUE TYPE: Tmax (h)
Give bare numbers, in h.

Which value of Tmax has been reported for "C#Cc1cccc(Nc2nc3cc(C(=O)O)ccc3c3cncnc23)c1" in the records?
1

* * *

TGT: recombinant human PIM1 (Homo sapiens (Human), UniProt P11309)
Sequence (P11309 whole entry): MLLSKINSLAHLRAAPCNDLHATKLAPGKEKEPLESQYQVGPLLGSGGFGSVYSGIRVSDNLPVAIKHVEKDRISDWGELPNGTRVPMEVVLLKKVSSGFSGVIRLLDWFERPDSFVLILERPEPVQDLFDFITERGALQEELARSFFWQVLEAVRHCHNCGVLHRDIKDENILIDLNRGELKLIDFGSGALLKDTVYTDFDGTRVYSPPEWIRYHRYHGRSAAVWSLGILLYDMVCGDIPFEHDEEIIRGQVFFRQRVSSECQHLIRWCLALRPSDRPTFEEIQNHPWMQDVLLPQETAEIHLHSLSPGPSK
ASSAY SUMMARY: PIM-1 kinase activity in cell-free in vitro assay
Type: biochemical
CONDITION LABEL: cell-free assay
For each of the compounds below, state its IC50.

Field: example entries. Status: answers known.
Nc1ncc2c(n1)c(NC1CC1)nc1cc(C(=O)O)ccc12 [drawing 1644] : 432 nM
CC(C)c1cccc(Nc2nc3cc(C(=O)O)ccc3c3cnccc23)c1 : 485 nM
O=C(O)c1ccc2c(c1)nc(NC1CC1)c1nc(Nc3ccc(F)cc3)ncc12 : 1070 nM

# map each compound to its IC50
1. O=C(O)c1ccc2c(c1)nc(Nc1ccc3ncccc3c1)c1ccncc12
2. CN1CCC(Nc2nc3cc(C#N)ccc3c3sccc23)CC1
3. Cc1ccccc1Nc1nc2cc(C(=O)O)ccc2c2cnccc12
4. c1cc2c(N3CCC(N4CCCC4)CC3)nc3cc(-c4nnn[nH]4)ccc3c2s1
5. COc1cc(Nc2nc3cc(C(=O)O)ccc3c3cnccc23)ccc1C
6. CN1CCCCC1CNc1nc2cc(C(=O)O)ccc2c2cnccc12 (stereo not shown)
7. O=C(O)c1ccc2c(c1)nc(NC1CCCC1)c1ccncc12

["89 nM", "1030 nM", "158 nM", "119 nM", "744 nM", "211 nM", "565 nM"]

* * *

TGT: recombinant human PIM1 (Homo sapiens (Human), UniProt P11309)
ASSAY SUMMARY: PIM-1 kinase activity in cell-free in vitro assay
Assay type: biochemical
CONDITION LABEL: 500 nM compound, cell-free; read-out: PIM-1: % inh 500 nM
VALUE TYPE: inhibition at 0.5 µM (%)
One number for each entry, in %.

O=c1[nH]c(-c2ccc3c(c2)nc(Nc2ccccc2)c2ccsc23)no1 [drawing 1434] : 5.78
CN(C)CCNC(=O)c1cccc(Nc2nc3cc(-c4nnn[nH]4)ccc3c3sccc23)c1 : 71.1
c1ccc(Nc2nc3cc(-c4nnn[nH]4)ccc3c3sccc23)cc1 : 70.9
COC(=O)c1ccc2c(c1)nc(Cl)c1ccsc12 [drawing 1375] : -30

Working through the 5 compounds below one at a time, give inhibition at 0.5 µM for each.
1. Cc1ccccc1Nc1nc2cc(C(=O)O)ccc2c2sccc12
2. COC(=O)c1ccc2c(c1)nc(Nc1cccc(OC)c1)c1ccncc12
3. Cc1cccc(Nc2nc3cc(-c4nnn[nH]4)ccc3c3sccc23)c1
4. O=C(O)c1ccc2c(c1)nc(Nc1cccc(Cl)c1)c1ccncc12 [drawing 1512]
5. c1ccc(Nc2nc3ccccc3c3sccc23)cc1 [drawing 1399]

1. -15.5
2. 19.4
3. 58
4. 90
5. -22

# return inhibition at 0.5 µM for each item in the list
1. NC(=O)c1ccc2c(c1)[nH]c(=O)c1ccncc12
2. OCCCOc1nc2ccccc2c2ccccc12

[4.18, 7.28]

* * *

TGT: recombinant human PIM1 (Homo sapiens (Human), UniProt P11309)
ASSAY SUMMARY: PIM-1 kinase activity in cell-free in vitro assay
Format: biochemical
CONDITION LABEL: 500 nM compound, cell-free assay; read-out: PIM-1: % inh 500 nM
Give measured inhibition at 0.5 µM for each item. Keep answers brief.
Give bare numbers, in %.

O=C(O)c1ccc2c(c1)nc(NC1CC1)c1nc(Nc3cc(F)ccc3F)ncc12 : 50.4
Cc1ccc(Nc2nc3cc(C(=O)O)ccc3c3cnccc23)cc1 : 60.6
Cc1ccccc1Nc1ncc2c(n1)c(NC1CC1)nc1cc(C(=O)O)ccc12 : 52.8
O=C(O)c1ccc2c(c1)nc(Nc1ccc3cn[nH]c3c1)c1ccncc12 : 75.1
N#Cc1ccc2c(c1)nc(NCCC(F)(F)F)c1ccsc12 : -89.6
O=C(O)c1ccc2c(c1)nc(NC1CC1)c1nc(Nc3cc(F)cc(F)c3)ncc12 : 46.3

Would you mind giving inhibition at 0.5 µM for every compound in the list below?
1. O=C(O)c1ccc2c(c1)nc(NC1CC1)c1nc(NNCCO)ncc12
2. N#Cc1ccc2c(c1)nc(NCCCN)c1ccsc12

[-37, 76.6]

* * *

Please go through the items and note down their IC50.
Tested on: MV-4-11
ASSAY SUMMARY: Cell proliferation modulatory activity, MV-4-11
Format: cell-based
CONDITION LABEL: Homo sapiens, MV4-11; Table 45; read-out: MV-4-11 IC50

Solved entries:
Cc1cc(F)ccc1Nc1nc2c(-c3nnc[nH]3)cccc2c2cnccc12 : < 100 nM
COc1cc(Nc2nc3c(-c4nc[nH]n4)cccc3c3cnccc23)ccc1F : < 500 nM
CCOc1ccc(Nc2nc3c(-c4nnc[nH]4)cccc3c3cnccc23)cc1 : < 100 nM

Please turn your attention to the following entry.
Observed IC50 on MV-4-11 for "Clc1cccc(Nc2nc3c(-c4nnc[nH]4)cccc3c3cnccc23)c1" , please.
< 500 nM

* * *

Tested on: MV-4-11
ASSAY SUMMARY: Cell proliferation modulatory activity, MV-4-11
Type: cell-based
CONDITION LABEL: Homo sapiens, MV4-11; Table 45; read-out: MV-4-11 IC50
pIC50: −log10 of the molar value.
VALUE TYPE: pIC50

Here are 7 compounds. What values of pIC50 were reported for them?
1. COc1ccc(Nc2nc3c(-c4nc[nH]n4)cccc3c3cnccc23)cc1
2. COc1cccc(CNc2nc3c(-c4nc[nH]n4)cccc3c3cnccc23)c1
3. FC(F)(F)Oc1ccccc1Nc1nc2c(-c3nnc[nH]3)cccc2c2cnccc12
4. NC(=O)c1cccc2c1nc(Nc1cccc(F)c1)c1ccncc12
5. CN(c1ccccc1Cl)c1nc2c(-c3nnc[nH]3)cccc2c2cnccc12
6. Fc1ccccc1Nc1nc2c(-c3nnc[nH]3)cccc2c2cnccc12
7. COc1cccc(Nc2nc3c(-c4nnc[nH]4)cccc3c3cnccc23)c1

> 7.00
> 6.30
> 6.30
> 6.92
> 7.00
> 7.00
> 6.30
